TARGET SYSTEM: ROCK2 (Homo sapiens (Human))
MEASUREMENT DESCRIPTION: Inhibition of ROCK2 (Rho kinase inhibition assay; ROCK-II Assay Kit / IMAP)
Assay type: biochemical
RUN CONDITIONS: Table 1; repeat determinations
molecules and their reported IC50

Example entries and their recorded answers appear below.
INSERT INTO assay_data (molecule, value_reported) VALUES
  ('COCCN(C)CC(=O)Nc1ccccc1-c1nc(Nc2ccc3[nH]ncc3c2)c2ccccc2n1', '> 100 µM'),
  ('COc1ccccc1-c1nc(Nc2ccc3[nH]ncc3c2)c2ccccc2n1', '> 100 µM'),
  ('CC(C)NC(=O)COc1ccccc1-c1nc(Nc2ccc3[nH]ncc3c2)c2ccccc2n1', '> 100 µM');

Entry COCCNC(=O)COc1ccccc1-c1nc(Nc2ccc3[nH]ncc3c2)c2ccccc2n1 — recorded IC50 = > 100 µM

Entry COCCNC(=O)COc1ccccc1-c1nc(N(CC(=O)NCCOC)c2ccc3[nH]ncc3c2)c2ccccc2n1 — recorded IC50 = > 100 µM

----------
TARGET SYSTEM: ROCK2 (Homo sapiens (Human))
MEASUREMENT DESCRIPTION: Inhibition of ROCK2 (Rho kinase inhibition assay; ROCK-II Assay Kit / IMAP)
Format: biochemical
RUN CONDITIONS: Table 1; repeat determinations
REPORTED ENDPOINT: IC50

INSERT INTO assay_data (compound, value_reported) VALUES
  ('O=C(Nc1ccccc1-c1nc(Nc2ccc3[nH]ncc3c2)c2ccccc2n1)N1CCOCC1 [Example 220]', '> 100 µM');

Entry CCCC(=O)Nc1cccc(-c2nc(Nc3ccc4c(cnn4C(=O)OC(C)(C)C)c3)c3cc(OCCOC)c(OC)cc3n2)c1 [Example 261] — recorded IC50 = > 0.3 µM

Entry CCCC(=O)Nc1ccccc1-c1nc(Nc2ccc3[nH]ncc3c2)c2ccccc2n1 [Example 212] — recorded IC50 = > 100 µM

Entry CN(C)C(=O)Nc1ccccc1-c1nc(Nc2ccc3[nH]ncc3c2)c2ccccc2n1 [Example 221] — recorded IC50 = 49 µM

Entry O=C(COc1ccccc1-c1nc(N(CC(=O)NCC2CC2)c2ccc3[nH]ncc3c2)c2ccccc2n1)NCC1CC1 [Example 235] — recorded IC50 = > 100 µM

Entry O=C(COc1ccccc1-c1nc(Nc2ccc3[nH]ncc3c2)c2ccccc2n1)NCc1ccccc1 [Example 237] — recorded IC50 = > 100 µM

Entry CCCC(=O)Oc1cccc(-c2nc(Nc3ccc4[nH]ncc4c3)c3ccccc3n2)c1 [Example 211] — recorded IC50 = 0.129 µM

Entry O=C(CN1CCOCC1)Nc1ccccc1-c1nc(Nc2ccc3[nH]ncc3c2)c2ccccc2n1 [Example 231] — recorded IC50 = > 3 µM

----------
compounds and their reported IC50
TARGET SYSTEM: ROCK2 (Homo sapiens (Human), UniProt O75116)
Sequence (O75116 whole entry, species assumed): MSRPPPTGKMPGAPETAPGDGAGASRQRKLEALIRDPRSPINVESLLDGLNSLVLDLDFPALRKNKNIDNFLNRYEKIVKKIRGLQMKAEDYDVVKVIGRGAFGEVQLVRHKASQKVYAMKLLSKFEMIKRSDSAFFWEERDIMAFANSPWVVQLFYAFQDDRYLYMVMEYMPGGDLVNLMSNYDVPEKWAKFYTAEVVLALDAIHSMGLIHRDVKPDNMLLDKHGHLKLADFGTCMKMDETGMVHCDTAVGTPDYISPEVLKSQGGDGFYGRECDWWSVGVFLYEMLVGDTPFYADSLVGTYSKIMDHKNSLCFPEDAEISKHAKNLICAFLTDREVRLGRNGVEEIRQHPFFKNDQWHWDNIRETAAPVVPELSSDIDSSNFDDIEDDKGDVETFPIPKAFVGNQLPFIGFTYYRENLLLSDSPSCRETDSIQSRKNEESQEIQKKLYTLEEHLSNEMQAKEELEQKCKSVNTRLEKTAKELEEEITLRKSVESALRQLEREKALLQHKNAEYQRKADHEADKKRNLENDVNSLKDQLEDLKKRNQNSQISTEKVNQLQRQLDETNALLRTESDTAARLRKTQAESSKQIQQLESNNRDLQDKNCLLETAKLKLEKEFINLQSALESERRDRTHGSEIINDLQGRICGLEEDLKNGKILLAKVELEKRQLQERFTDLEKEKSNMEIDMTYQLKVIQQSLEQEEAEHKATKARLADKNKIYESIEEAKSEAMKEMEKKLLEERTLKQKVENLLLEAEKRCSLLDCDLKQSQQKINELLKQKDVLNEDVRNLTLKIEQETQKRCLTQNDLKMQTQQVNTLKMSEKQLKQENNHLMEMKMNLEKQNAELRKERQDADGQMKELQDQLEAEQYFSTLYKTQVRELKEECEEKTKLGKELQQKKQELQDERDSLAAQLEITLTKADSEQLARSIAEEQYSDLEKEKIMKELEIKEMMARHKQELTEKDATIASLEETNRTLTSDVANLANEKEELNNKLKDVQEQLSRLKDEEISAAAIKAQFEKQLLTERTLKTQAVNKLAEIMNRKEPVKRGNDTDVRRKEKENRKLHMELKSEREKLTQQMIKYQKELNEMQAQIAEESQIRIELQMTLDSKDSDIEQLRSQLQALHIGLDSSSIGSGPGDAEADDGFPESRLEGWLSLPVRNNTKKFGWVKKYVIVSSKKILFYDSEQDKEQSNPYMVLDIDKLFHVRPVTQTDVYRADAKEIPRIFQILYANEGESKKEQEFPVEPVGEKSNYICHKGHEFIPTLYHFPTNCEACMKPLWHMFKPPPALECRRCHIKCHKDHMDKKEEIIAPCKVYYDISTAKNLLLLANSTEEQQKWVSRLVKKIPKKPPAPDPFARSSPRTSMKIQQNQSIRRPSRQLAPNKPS
MEASUREMENT DESCRIPTION: Inhibition of ROCK2 (Rho kinase inhibition assay; ROCK-II Assay Kit / IMAP)
Assay type: biochemical
RUN CONDITIONS: Table 1; repeat determinations

INSERT INTO results (compound, value_reported) VALUES
  ('COCC(=O)Nc1ccccc1-c1nc(Nc2ccc3[nH]ncc3c2)c2ccccc2n1', '1.7 µM');

Note to self: IC50 of O=C(CN1CCCC1)Nc1ccccc1-c1nc(Nc2ccc3[nH]ncc3c2)c2ccccc2n1 with ROCK2 (Homo sapiens (Human), UniProt O75116) was 36 µM

Note to self: IC50 of CCCC(=O)Nc1cccc(-c2nc(Nc3ccc4c(cnn4C)c3)c3cc(OCCN(C)C)ccc3n2)c1 with ROCK2 (Homo sapiens (Human), UniProt O75116) was > 0.3 µM

Note to self: IC50 of O=C(Nc1ccccc1-c1nc(Nc2ccc3[nH]ncc3c2)c2ccccc2n1)C1CCCNC1 (centres unmarked) with ROCK2 (Homo sapiens (Human), UniProt O75116) was > 100 µM

Note to self: IC50 of O=C(Nc1ccccc1-c1nc(Nc2ccc3[nH]ncc3c2)c2ccccc2n1)c1ccncc1 with ROCK2 (Homo sapiens (Human), UniProt O75116) was > 100 µM

Note to self: IC50 of O=C(Nc1ccccc1-c1nc(Nc2ccc3[nH]ncc3c2)c2ccccc2n1)c1ccoc1 with ROCK2 (Homo sapiens (Human), UniProt O75116) was > 100 µM

Note to self: IC50 of O=C(COc1ccccc1-c1nc(N(CC(=O)NCc2ccccc2)c2ccc3[nH]ncc3c2)c2ccccc2n1)NCc1ccccc1 with ROCK2 (Homo sapiens (Human), UniProt O75116) was > 100 µM

Note to self: IC50 of Oc1ccc2nc(-c3ccccc3)nc(Nc3ccc4[nH]ncc4c3)c2c1 with ROCK2 (Homo sapiens (Human), UniProt O75116) was 3.9 µM

Note to self: IC50 of COC(=O)Nc1ccccc1-c1nc(Nc2ccc3[nH]ncc3c2)c2ccccc2n1 with ROCK2 (Homo sapiens (Human), UniProt O75116) was 2.9 µM

Note to self: IC50 of CC(C)(C)C(=O)Nc1ccccc1-c1nc(Nc2ccc3[nH]ncc3c2)c2ccccc2n1 with ROCK2 (Homo sapiens (Human), UniProt O75116) was > 100 µM

Note to self: IC50 of O=C(Nc1ccccc1-c1nc(Nc2ccc3[nH]ncc3c2)c2ccccc2n1)c1ccccn1 with ROCK2 (Homo sapiens (Human), UniProt O75116) was > 100 µM
